All figures here come from paper PMC8119466.

Target: recombinant PRL-2 (Homo sapiens, UniProt Q12974)
Construct: 6xHis (N, cleaved yes); made in house; host or cells: E. coli One Shot BL21 Star
Sequence (Q12974 1-167): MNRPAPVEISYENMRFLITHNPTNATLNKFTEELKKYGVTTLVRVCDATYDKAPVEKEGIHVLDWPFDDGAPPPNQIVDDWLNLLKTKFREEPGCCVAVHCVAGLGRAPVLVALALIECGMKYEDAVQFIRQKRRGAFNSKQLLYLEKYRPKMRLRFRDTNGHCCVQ
Assay: In vitro phosphatase assay (DiFMUP hydrolysis), PRL-2;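 further: PRL-2 activity read as DiFMUP hydrolysis after 20 min at room temperature with drug, enzyme first pre-reduced at 4 °C for 20 min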
Type: biochemical
Conditions: FDA-approved drug screen; compared to DMSO
Provide the reported % Phosphatase Activity (compared to DMSO) PRL-2 of each item.
Report only the number, with the unit % understood.

Given the entry O=c1c(-n2ccnn2)c[nH]n1-c1cc(N2CCOCC2)ncn1 [Molidustat (BAY 85-3934)] , report its measured % Phosphatase Activity (compared to DMSO) PRL-2.
74

Looking for the measured % Phosphatase Activity (compared to DMSO) PRL-2 of NC(=O)[C@@H]1CCCN1C(=O)[C@H](Cc1cnc[nH]1)NC(=O)[C@@H]1CCC(=O)N1 [Protirelin] , can you help?
91

For the compound shown here, Nc1ncnc2c1ncn2[C@@H]1O[C@H](CO)[C@@H](O)[C@H]1O [Adenosine] , give the reported % Phosphatase Activity (compared to DMSO) PRL-2.
93

Find the recorded % Phosphatase Activity (compared to DMSO) PRL-2 belonging to Cc1c(F)cc(C(=O)NC2CC2)cc1-c1ccc(C(=O)NCC(C)(C)C)cn1 [Losmapimod (GW856553X)] and report it.
66

Value lookup for % Phosphatase Activity (compared to DMSO) PRL-2; key = CO[C@H]1C(=O)[C@]2(C)[C@@H](OC)C[C@H]3OC[C@@]3(OC(C)=O)[C@H]2[C@H](OC(=O)c2ccccc2)[C@]2(O)C[C@H](OC(=O)[C@H](O)[C@@H](NC(=O)OC(C)(C)C)c3ccccc3)C(C)=C1C2(C)C [Cabazitaxel]
107

// query % Phosphatase Activity (compared to DMSO) PRL-2 value for entry CNCCc1ccccn1.Cl.Cl [Betahistine 2HCl]
96

Need % Phosphatase Activity (compared to DMSO) PRL-2, item CN(C)CC(c1ccc(O)cc1)C1(O)CCCCC1 (stereo not shown) [Desvenlafaxine Succinate]
103

* * *

Biological target: recombinant PRL-1 (Homo sapiens, UniProt Q93096)
Construct: 6xHis (N, cleaved yes); made in house; host or cells: E. coli One Shot BL21 Star
Experiment: In vitro phosphatase assay (DiFMUP hydrolysis), PRL-1; further: test concentration or dose not given here
Format: biochemical
Details: FDA-approved drug screen; compared to DMSO
Where a name gives a salt, the structure may show the parent alone.
Endpoint Label: % Phosphatase Activity (compared to DMSO) PRL-1 (%)
The reply should contain only the number, in %.

Return reported % Phosphatase Activity (compared to DMSO) PRL-1; argument: Clc1ccc(COC(Cn2ccnc2)c2ccc(Cl)cc2Cl)c(Cl)c1 (stereo not shown) [Miconazole Nitrate]
98

I have this compound here, CCOC(=O)CC(=O)N1CCSC1COc1ccccc1OC (stereo not shown) , and I need its recorded % Phosphatase Activity (compared to DMSO) PRL-1.
104

Which value of % Phosphatase Activity (compared to DMSO) PRL-1 has been reported for CCN(CC)CCOc1ccc(C(=C(Cl)c2ccccc2)c2ccccc2)cc1 [Clomifene citrate] in the records?
120

So what does the record say about % Phosphatase Activity (compared to DMSO) PRL-1 for CCCC1O[C@@H]2C[C@H]3[C@@H]4CCC5=CC(=O)C=C[C@]5(C)[C@H]4[C@@H](O)C[C@]3(C)[C@]2(C(=O)CO)O1 (stereo partly shown) [Budesonide] ?
93

* * *

Molecular target: recombinant PRL-1 (Homo sapiens, UniProt Q93096)
Construct: 6xHis (N, cleaved yes); made in house; host or cells: E. coli One Shot BL21 Star
Sequence (Q93096 1-173): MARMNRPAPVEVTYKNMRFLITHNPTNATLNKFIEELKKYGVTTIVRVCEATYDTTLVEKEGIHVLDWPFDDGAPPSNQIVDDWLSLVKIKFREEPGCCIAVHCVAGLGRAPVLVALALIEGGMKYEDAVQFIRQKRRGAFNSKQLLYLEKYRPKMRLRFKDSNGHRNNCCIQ
Experiment: In vitro phosphatase assay (DiFMUP hydrolysis), PRL-1; further: test concentration or dose not given here
Format: biochemical
Settings: FDA-approved drug screen; compared to DMSO
Where a name gives a salt, the structure may show the parent alone.
So I've got a bunch of compounds here, and I need their % Phosphatase Activity (compared to DMSO) PRL-1 values.
Enter your answer as a number in %; do not include the unit.

Quick one: % Phosphatase Activity (compared to DMSO) PRL-1 for OCCN1C[C@H](O)[C@@H](O)[C@H](O)[C@H]1CO [Miglitol] ?
114

Any idea what % Phosphatase Activity (compared to DMSO) PRL-1 was measured for O=C1C2CC3CC1CC(O)(C3)C2 [Idramantone] ?
105

What does the data say about its % Phosphatase Activity (compared to DMSO) PRL-1? Entry: COc1cc(Nc2ncc(F)c(Nc3ccc4c(n3)N(COP(=O)(O)O)C(=O)C(C)(C)O4)n2)cc(OC)c1OC [Fostamatinib (R788)]
92

Any idea what its % Phosphatase Activity (compared to DMSO) PRL-1 is? The compound is NNC(=O)c1ccncc1.Nc1ccc(C(=O)O)c(O)c1 [Pasiniazid]
91

Which value of % Phosphatase Activity (compared to DMSO) PRL-1 has been reported for CN(C)C(=N)N=C(N)N [Metformin HCl] in the records?
102

Which measured % Phosphatase Activity (compared to DMSO) PRL-1 value corresponds to Cc1c(C(=O)NN2CCCCC2)nn(-c2ccc(Cl)cc2Cl)c1-c1ccc(Cl)cc1 [Rimonabant] ?
103

Which measured % Phosphatase Activity (compared to DMSO) PRL-1 value corresponds to C[C@H](CCC(=O)O)[C@H]1CC[C@H]2[C@@H]3C(=O)C[C@@H]4CC(=O)CC[C@]4(C)[C@H]3CC(=O)[C@]12C [Dehydrocholic acid] ?
103

Find the recorded % Phosphatase Activity (compared to DMSO) PRL-1 belonging to CC(C)=CCC/C(C)=C/CC/C(C)=C/CSc1ccccc1C(=O)O [Salirasib] and report it.
26

# % Phosphatase Activity (compared to DMSO) PRL-1 lookup, item COc1ccc2c(c1)c(CC(=O)OCC(=O)O)c(C)n2C(=O)c1ccc(Cl)cc1 [Acemetacin]
93

Name the recorded % Phosphatase Activity (compared to DMSO) PRL-1 for CCCCOC(=O)c1ccc(O)cc1 [Butylparaben] .
91

Name the reported % Phosphatase Activity (compared to DMSO) PRL-1 value associated with the compound Clc1ccc(C(Cn2ccnc2)OCc2ccc(Sc3ccccc3)cc2)c(Cl)c1 (stereo not shown) [Fenticonazole Nitrate]
107

Entry under review: Cc1c(-c2ccccc2)oc2c(C(=O)OCCN3CCCCC3)cccc2c1=O [Flavoxate HCl] . Reported % Phosphatase Activity (compared to DMSO) PRL-1?
103

What value of measured % Phosphatase Activity (compared to DMSO) PRL-1 is listed for CCCN1C[C@H](CSC)C[C@@H]2c3cccc4[nH]cc(c34)C[C@H]21 [Pergolide mesylate] ?
109

Form field: reported % Phosphatase Activity (compared to DMSO) PRL-1 of CCCCCCCCCC(=O)N[C@@H](Cc1c[nH]c2ccccc12)C(=O)N[C@H](CC(N)=O)C(=O)N[C@@H](CC(=O)O)C(=O)N[C@@H]1C(=O)NCC(=O)N[C@@H](CCCN)C(=O)N[C@@H](CC(=O)O)C(=O)N[C@H](C)C(=O)N[C@@H](CC(=O)O)C(=O)NCC(=O)N[C@H](CO)C(=O)N[C@@H]([C@H](C)CC(=O)O)C(=O)N[C@@H](CC(=O)c2ccccc2N)C(=O)O[C@@H]1C [Daptomycin]
90

Param item = N#CC(c1ccc(Cl)cc1)c1c(Cl)cc(-n2ncc(=O)[nH]c2=O)cc1Cl (stereo not shown) [Diclazuril] ; retrieve measured % Phosphatase Activity (compared to DMSO) PRL-1.
79

May I ask what % Phosphatase Activity (compared to DMSO) PRL-1 has been recorded for CC[C@H](C)C(=O)O[C@H]1C[C@H](O)C=C2C=C[C@H](C)[C@H](CC[C@@H](O)C[C@@H](O)CC(=O)O)[C@H]21 [Pravastatin sodium] ?
93

I have this compound here, COc1cccc2c1C(=O)c1c(O)c3c(c(O)c1C2=O)C[C@@](O)(C(=O)CO)C[C@@H]3O[C@H]1C[C@H](N)[C@H](O)[C@H](C)O1 [Doxorubicin (Adriamycin)] , and I need its recorded % Phosphatase Activity (compared to DMSO) PRL-1.
75

Any idea what its % Phosphatase Activity (compared to DMSO) PRL-1 is? The compound is CN1CCN(C2=Nc3ccccc3Oc3ccc(Cl)cc32)CC1 [Loxapine Succinate]
96

Reported % Phosphatase Activity (compared to DMSO) PRL-1 for C[C@H]1[C@H](NC(=O)/C(=N\OC(C)(C)C(=O)O)c2csc(N)n2)C(=O)N1S(=O)(=O)O [Aztreonam] : what is it?
97

I'd like to know its % Phosphatase Activity (compared to DMSO) PRL-1. The compound in question is COc1ccc2[n-]c([S+]([O-])Cc3ncc(C)c(OC)c3C)nc2c1.COc1ccc2[n-]c([S+]([O-])Cc3ncc(C)c(OC)c3C)nc2c1.[Mg+2] (stereo not shown) [Esomeprazole Magnesium]
84

Consider the compound shown here: Nc1ccc(O)c(C(=O)O)c1 [Mesalamine] What is its recorded % Phosphatase Activity (compared to DMSO) PRL-1?
112

Fill in the blank: the reported % Phosphatase Activity (compared to DMSO) PRL-1 of CC(=O)[C@H]1CC[C@H]2[C@@H]3CC=C4C[C@@H](O)CC[C@]4(C)[C@H]3CC[C@]12C [Pregnenolone] is ____.
89

State the recorded % Phosphatase Activity (compared to DMSO) PRL-1 for this entry: Cc1cc(=O)n(-c2ccccc2)n1C [Antipyrine]
98

Given the entry COC(=O)C1=C(C)NC(C)=C(C(=O)OCC(C)C)C1c1ccccc1[N+](=O)[O-] (stereo not shown) [Nisoldipine] , report its measured % Phosphatase Activity (compared to DMSO) PRL-1.
81

Looking for the measured % Phosphatase Activity (compared to DMSO) PRL-1 of Nc1ccc(S(=O)(=O)c2ccc(N)cc2)cc1 [Dapson] , can you help?
89

Reported % Phosphatase Activity (compared to DMSO) PRL-1 for CN(C)CCC=C1c2ccccc2CCc2ccccc21 [Amitriptyline HCl] : what is it?
92

Find the recorded % Phosphatase Activity (compared to DMSO) PRL-1 belonging to CCN1CC(CCN2CCOCC2)C(c2ccccc2)(c2ccccc2)C1=O.Cl (stereo not shown) [Doxapram HCl] and report it.
113

Given the compound CNC[C@H](O)[C@@H](O)[C@H](O)[C@H](O)CO.Cc1c(Nc2ncccc2C(=O)O)cccc1C(F)(F)F [Flunixin Meglumin] , what is its reported % Phosphatase Activity (compared to DMSO) PRL-1?
94

// lookup % Phosphatase Activity (compared to DMSO) PRL-1 for CC(C)Cc1ccc(C(C)C(=O)O)cc1 (stereo not shown) [Ibuprofen]
99

Quick check: % Phosphatase Activity (compared to DMSO) PRL-1 of CCn1cc(C(=O)O)c(=O)c2cnc(N3CCCC3)nc21 [Piromidic Acid] ?
105

Which % Phosphatase Activity (compared to DMSO) PRL-1 is listed for O=C([O-])c1cc(=O)c2c(OCC(O)COc3cccc4oc(C(=O)[O-])cc(=O)c34)cccc2o1.[Na+].[Na+] [Disodium Cromoglycate] ?
93
